Molecular target: BRD4 bromodomains (Homo sapiens)
Construct: fused on or other part: T7 phage capsid protein (phage-display fusion; the phage DNA is read out by qPCR)
Assay: BROMOscan bromodomain competition binding assay (DiscoveRx)
Conditions: Kd from 11 compound concentrations ranging from 0 to 10 μM, read-out: BROMOscan Relative Activity
pKd: −log10 of the molar value.
# maps each entry to its pKd

Illustrative cases are given below, each with its answer.
compound: Cc1noc(C)c1-c1ccc2nc(C(=O)Nc3cncc(F)c3)nc(NCc3cccc(Cl)c3)c2c1 [Example 221]
pKd: 5.30 to 6.30
--
compound: CN(C)CCCN1CCN(c2nc(NCc3cncc(Cl)c3)c3cc(-c4ccc(=O)n(C)c4)ccc3n2)CC1 [Example 125]
pKd: > 6.30
--
compound: Cc1noc(C)c1-c1ccc2nc(N3CCN(CCN(C)C)CC3)nc(NCc3cccc(Cl)c3)c2c1 [Example 12]
pKd: > 6.30

Request: For the compound Cn1cc(-c2ccc3nc(N4CCN(CC(C)(C)O)CC4)nc(NCc4cncc(Cl)c4)c3c2)ccc1=O [Example 135] , what pKd is on record?
Response: > 6.30

Request: For the compound COc1cccc(CNc2nc(N3CCN(CCN(C)C)CC3)nc3ccc(-c4c(C)noc4C)cc23)c1 [Example 73] , what pKd is on record?
Response: > 6.30

Request: For the compound Cc1ncc(CNC(=O)c2nc(NCc3cccc(Cl)c3)c3cc(-c4c(C)noc4C)ccc3n2)s1 [Example 212] , what pKd is on record?
Response: > 6.30

Request: For the compound Cc1noc(C)c1-c1ccc2nc(N3CCN(C[C@H](C)O)CC3)nc(N3CCOC[C@@H]3c3ccccc3)c2c1 [Example 308] , what pKd is on record?
Response: > 6.30

Request: For the compound Cc1noc(C)c1-c1ccc2nc(Cl)nc(Nc3ccc(Cl)cc3)c2c1 [Example 151] , what pKd is on record?
Response: < 5.30

Request: For the compound Cc1noc(C)c1-c1ccc2nc(N3CCCCC3CO)nc(NCc3cccc(Cl)c3)c2c1 (stereo not shown) [Example 25] , what pKd is on record?
Response: 5.30 to 6.30

Request: For the compound Cc1noc(C)c1-c1ccc2nc(N3CCN(CCN(C)C)CC3)cc(NCc3cccc(Cl)c3)c2c1 [Example 26] , what pKd is on record?
Response: > 6.30

###

Biological target: BRD4 bromodomains (Homo sapiens)
Construct: fused on or other part: T7 phage capsid protein (phage-display fusion; the phage DNA is read out by qPCR)
Assay: BROMOscan bromodomain competition binding assay (DiscoveRx)
Conditions: Kd from 11 compound concentrations ranging from 0 to 10 μM, read-out: BROMOscan Relative Activity
pKd: −log10 of the molar value.
# maps each entry to its pKd

structure-string: Cc1noc(C)c1-c1ccc2nc(-c3c(C)noc3C)nc(NCc3cccc(Cl)c3)c2c1
pKd: 5.30 to 6.30

structure-string: Cc1noc(C)c1-c1ccc2cc(N3CCN(CCN(C)C)CC3)nc(NCc3cccc(Cl)c3)c2c1
pKd: 5.30 to 6.30

structure-string: CNC(=O)Cn1cc(-c2nc(NCc3cccc(Cl)c3)c3cc(-c4ccc(=O)n(C)c4)ccc3n2)cn1
pKd: > 6.30

structure-string: Cc1noc(C)c1-c1ccc2nc(C(=O)NC3CCN(C)CC3)nc(N3CCOC[C@@H]3c3ccccc3)c2c1
pKd: > 6.30

structure-string: COc1nc(NCc2cccc(Cl)c2)c2cc(-c3c(C)noc3C)ccc2n1
pKd: > 6.30

Request: For the compound Cc1nn(C)cc1CNC(=O)c1cc(NCc2cccc(Cl)c2)c2cc(-c3c(C)noc3C)ccc2n1 , what pKd is on record?
Response: > 6.30

Request: For the compound Cc1noc(C)c1-c1ccc2nc(-c3cnn(C(C)(C)CO)c3)nc(NCc3cncc(Cl)c3)c2c1 , what pKd is on record?
Response: > 6.30

Request: For the compound CNC(=O)CN1CCN(c2nc(N3CCOC[C@@H]3c3ccccc3)c3cc(-c4c(C)noc4C)ccc3n2)CC1 , what pKd is on record?
Response: > 6.30
